Target: Platelet-activating factor acetylhydrolase IB subunit alpha2 (Homo sapiens)
Test: inhibition of human PAFAH1B2 catalytic subunit – biochemical, fluorescence polarization, FP-rhodamine probe, triplicate, confirmation (AID 493034);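 note: 0% = enzyme with DMSO and 100% = wells lacking PAFAH1B2 protein; inhibitors lower polarization by leaving the probe unbound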
Conditions: recombinant PAFAH1B2, FP-rhodamine probe fluorescence polarization; at 3.39 µM; active compounds read high
Hit rate of the full screen: of about 2,400 compounds, about 2,200 (92%) were called active. The set was probably picked from earlier hits. This is one part of the list.
Classification field: rule met = inhibition at or over 40%; rule not met = inhibition under 40%.

Asked: Is inhibition at least 40%? Consider `Clc1ccc(SCCn2ccnc2)cc1`
Given back: rule not met

Asked: And then `CC(C)CCNC(=O)Cc1c(C(=O)O)[nH]c2ccc(Cl)cc12` , what is it?
Given back: rule met

Asked: Check `N#Cc1ccc(S(=O)(=O)N2CCc3[nH]c4ccc(F)cc4c3C2)cc1` too.
Given back: rule not met

Asked: Next molecule: `CC(=O)C[C@H](O)CC(=O)[C@H]1OC(=O)CCCCCCCCc2ccccc21`
Given back: rule not met

Asked: Please give the result for `O=C(O)CC/C(=C\c1ccc(N2CCCC2)c([N+](=O)[O-])c1)c1nc2ccccc2s1` too.
Given back: rule met

Asked: Entry to check: `Clc1ccc(SCCCCn2ccnc2)cc1`
Given back: rule met

Asked: Request: `COc1cc(/C=C(\CCC(=O)O)c2nc3ccccc3s2)ccc1OCC(=O)Nc1c(Cl)cccc1Cl`
Given back: rule met

Asked: Repeat for the following molecule: CCCCNC(=O)c1cccc(S(=O)(=O)N2CC3(C)CC2CC(C)(C)C3)c1 (stereo unspecified)
Given back: rule not met

Asked: Okay, and `Cc1ccc2[nH]c(C(=O)O)c(NC(=O)[C@@H]3C[C@@H]3c3ccccc3)c2c1` ?
Given back: rule not met

Asked: Could you do the same for `CCOCCCNC(=O)Cc1c(C(=O)O)[nH]c2ccc(Cl)cc12` , please?
Given back: rule not met

###

Biological target: Platelet-activating factor acetylhydrolase IB subunit alpha2 (Homo sapiens) (UniProt P68402)
Sequence (P68402 whole entry, looked up): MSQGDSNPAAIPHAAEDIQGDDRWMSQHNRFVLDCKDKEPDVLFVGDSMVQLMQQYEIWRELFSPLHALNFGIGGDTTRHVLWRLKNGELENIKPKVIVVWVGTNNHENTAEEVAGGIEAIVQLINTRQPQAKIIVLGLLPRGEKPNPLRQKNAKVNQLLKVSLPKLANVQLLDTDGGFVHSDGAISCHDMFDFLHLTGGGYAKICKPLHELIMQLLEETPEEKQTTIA
Test: inhibition of human PAFAH1B2 catalytic subunit – biochemical, fluorescence polarization, FP-rhodamine probe, triplicate, confirmation (AID 493034);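 note: 0% = enzyme with DMSO and 100% = wells lacking PAFAH1B2 protein; inhibitors lower polarization by leaving the probe unbound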
Details: recombinant PAFAH1B2, FP-rhodamine probe fluorescence polarization; at 3.39 µM
Out of some 2,400 compounds screened, about 2,200 (92%) were called active.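 How the source made its calls: active means mean inhibition over triplicate runs exceeds the cutoff derived for the earlier primary screen (cut at about 25% in these data); inactive means the rest.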 So high a share suggests a set chosen from earlier hits. Some of the results follow.
Form entry, call: pick from class 1 for active, class 0 for inactive

Asked: What did this assay record as the result for `O=[N+]([O-])c1ccc(S(=O)(=O)NNC(=S)NCCc2ccccc2)cc1` ?
Given back: class 1

Asked: Follow-up entry: `Cc1ccc(S(=O)(=O)N2[C@@H](c3cccc(C)c3)C(C(=O)O)=C[C@H]2C(C)(C)C)cc1`
Given back: class 0

Asked: Note, next up: `Cc1ccc(S(=O)(=O)N2[C@@H](c3ccc(C(C)(C)C)cc3)C(C(=O)O)=CC[C@H]2c2cccc(Cl)c2)cc1`
Given back: class 1

Asked: Also `CCc1ccc(-c2nc(CSCC(=O)N3CCN(c4ccccn4)CC3)c(C)o2)cc1` ?
Given back: class 1

Asked: Would you mind doing Cc1ccc(S(=O)(=O)n2ccc3c(OCCOCCSCC(NC(=O)OC(C)(C)C)C(=O)O)cccc32)cc1 (centres undefined) as well?
Given back: class 1

Asked: Also check `Cc1ccc(S(=O)(=O)N2[C@@H](c3ccccc3)C(C(=O)O)=CC[C@H]2c2cccc(C)c2)cc1`
Given back: class 0

Asked: Next record, please: `Nc1nn(S(=O)(=O)c2ccccc2)cc1-c1ccc([N+](=O)[O-])cc1`
Given back: class 0

Asked: Lookup `CC1=CC(=NNS(=O)(=O)c2ccc([N+](=O)[O-])cc2)CC(C)(C)C1`
Given back: class 0

Asked: Next entry: `Cc1ccc(S(=O)(=O)N2[C@@H](c3ccc(Br)cc3)C(C(=O)O)=CC[C@H]2c2ccc3c(c2)OCO3)cc1`
Given back: class 1

###

For each entry below, report its inhibition value.
Biological target: Platelet-activating factor acetylhydrolase IB subunit alpha2 (Homo sapiens)
Assay: inhibition of human PAFAH1B2 catalytic subunit – biochemical, fluorescence polarization, FP-rhodamine probe, triplicate, confirmation (AID 493034);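 note: 0% = enzyme with DMSO and 100% = wells lacking PAFAH1B2 protein; inhibitors lower polarization by leaving the probe unbound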
Conditions: recombinant PAFAH1B2, FP-rhodamine probe fluorescence polarization; at 3.39 µM; active compounds read high
Hit rate of the full screen: of about 2,400 compounds, about 2,200 (92%) were called active. The set was probably picked from earlier hits. The list shows a part of the results.
Give the quantity in %, number only.

Asked: Endpoint output: inhibition of `Cc1cc(NC(=S)N(Cc2ccc(Br)cc2)Cc2ccc(C(=O)O)cc2)ccc1Cl` . Value?
Given back: 1.23

Asked: Next compound: `O=C(NCCc1ccc(Cl)cc1)c1ccc(=O)[nH]c1`
Given back: 19.5

Asked: Can you handle `Cc1ccccc1S(=O)(=O)N1[C@@H](c2ccc(Br)cc2)C(C(=O)O)=CC[C@H]1c1ccc(Cl)cc1` next?
Given back: 83.2

Asked: Here is the next compound: `CN(CCc1ccccn1)C(=S)NC(=O)c1ccco1`
Given back: 3.54

Asked: Next compound up: Cc1ccc(CN=C2NC(=O)C(CC(=O)NCCc3ccccc3)S2)cc1 (stereo not given)
Given back: 51.6

Asked: Same again, this time with `Cc1noc(NS(=O)(=O)c2ccc(NC(=O)CC34CC5CC(CC(Br)(C5)C3)C4)cc2)c1C`
Given back: 30.9

Asked: `CC(C)(c1ccc(O)cc1)c1ccc(O)cc1` , same question.
Given back: 42.2

Asked: Repeat with `N#CC1=C(N)c2ccccc2CC12CCCCC2`
Given back: 17.4

Asked: Then what about the compound Cc1ccc(S(=O)(=O)/N=C2\SC(CC(=O)Nc3ccc(F)cc3)C(=O)N2c2ccccc2)cc1 (stereo not given) ?
Given back: 23.5

Asked: Please do the same for `CC(/C=C1\SC(=S)N(NS(=O)(=O)c2ccccc2)C1=O)=C\c1ccccc1` as well.
Given back: 39.6

###

Target: Platelet-activating factor acetylhydrolase IB subunit alpha2 (Homo sapiens)
Assay: inhibition of human PAFAH1B2 catalytic subunit – biochemical, fluorescence polarization, FP-rhodamine probe, triplicate, confirmation (AID 493034);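 note: 0% = enzyme with DMSO and 100% = wells lacking PAFAH1B2 protein; inhibitors lower polarization by leaving the probe unbound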
Conditions: recombinant PAFAH1B2, FP-rhodamine probe fluorescence polarization; at 3.39 µM; active compounds read high
In all, about 2,400 compounds went through this assay and about 2,200 (92%) were called active. So high a share suggests a set chosen from earlier hits. The list shows a part of the results.
Lab note: anything with inhibition at or over 20% counts as YES; the rest go in NO.

Asked: Check the entry CC(C(=O)O)N1C(=O)C2C3CC(C2C1=O)C1C(c2ccccc2)c2sc(=O)[nH]c2SC31 (stereo unspecified) : does inhibition equal or exceed 20%?
Given back: YES

Asked: Next molecule: `S=c1[nH]nc(CSCCOc2ccc(Cl)cc2Cl)o1`
Given back: YES

Asked: And the next one, CC(NC(=O)CN1C(=O)NC(Cc2ccccc2)(Cc2ccccc2)C1=O)C12CC3CC(CC(C3)C1)C2 (stereo unspecified) ?
Given back: YES

Asked: Can you check CC(NC(=O)c1ccc([N+](=O)[O-])o1)C12CC3CC(CC(C3)C1)C2 (stereo unspecified) next?
Given back: NO

Asked: // repeat for `COc1cc(C(=O)O[C@H]2CC(C)=CC[C@@]3(C)CC[C@@](O)(C(C)C)[C@H]23)ccc1O` and report
Given back: YES

Asked: // same read-out, input: `CCn1c(SCC(=O)N(C)C)nc2cc(S(=O)(=O)N3CCOCC3)ccc21`
Given back: NO

Asked: Let us now turn to CC(C)CC(C(=O)O)N1C(=O)C2C3CC(C2C1=O)C1C(c2ccccc2)c2sc(=O)[nH]c2SC31 (stereo unspecified)
Given back: YES

Asked: Let us now turn to `CCOc1cc2[nH]c(=O)n(CCCC(=O)NCc3ccc(OC)cc3)c(=O)c2cc1OCC`
Given back: NO

Asked: Also `N=c1c[n+](-c2ccc(Cl)cc2)[n-]o1` , if possible.
Given back: NO

Asked: Same for `Cc1nn(-c2ccccc2)c2c1CC(=O)Nc1ccccc1-2`
Given back: YES

Asked: Please do the same for `CNc1nc(NCCOC23CC4CC(CC(C4)C2)C3)nc(OCC(F)(F)F)n1` as well.
Given back: YES

Asked: How about `O=C(CCNS(=O)(=O)c1ccccc1)NCCCSc1ccccc1` ?
Given back: YES

Asked: Then what about the molecule `C=CCO/N=C(\C)c1c(O)c(C)c(-c2ccccc2)n(-c2ccccc2)c1=O` ?
Given back: YES

Asked: Try the molecule CC(C)(C)c1ccc(C2=CC(c3ccccc3F)n3ncnc3N2)cc1 (stereo unspecified)
Given back: NO

Asked: How about `O=C(NNC(=O)C12CC3CC(CC(C3)C1)C2)c1cccc([N+](=O)[O-])c1` ?
Given back: NO

Asked: Can you check C=C(C)C(COc1c2occc2cc2ccc(=O)oc12)OC(C)(C)C(O)COc1c2occc2cc2ccc(=O)oc12 (stereo unspecified) next?
Given back: YES

Asked: Try this molecule too: `Cc1ccc(S(=O)(=O)n2cc(CO)c3ccccc32)cc1`
Given back: YES

Asked: How about `Oc1cc2c(cc1O)CN(C(=S)NCCc1ccc(Cl)cc1)CCC2` ?
Given back: YES

Asked: Next molecule up: CC(Oc1ccc(Cl)cc1)C(=O)OCC(=O)Nc1ncc(Cl)cc1Cl (stereo unspecified)
Given back: YES
